Catalogue of molecules with associated EC50
Biological target: ΔF508-CFTR (Homo sapiens, UniProt P13569, DEL508-508)
Construct: host or cells: CFBE41o-, doxycycline-inducible
Sequence (P13569 with tags, fused parts or gaps DEL508-508): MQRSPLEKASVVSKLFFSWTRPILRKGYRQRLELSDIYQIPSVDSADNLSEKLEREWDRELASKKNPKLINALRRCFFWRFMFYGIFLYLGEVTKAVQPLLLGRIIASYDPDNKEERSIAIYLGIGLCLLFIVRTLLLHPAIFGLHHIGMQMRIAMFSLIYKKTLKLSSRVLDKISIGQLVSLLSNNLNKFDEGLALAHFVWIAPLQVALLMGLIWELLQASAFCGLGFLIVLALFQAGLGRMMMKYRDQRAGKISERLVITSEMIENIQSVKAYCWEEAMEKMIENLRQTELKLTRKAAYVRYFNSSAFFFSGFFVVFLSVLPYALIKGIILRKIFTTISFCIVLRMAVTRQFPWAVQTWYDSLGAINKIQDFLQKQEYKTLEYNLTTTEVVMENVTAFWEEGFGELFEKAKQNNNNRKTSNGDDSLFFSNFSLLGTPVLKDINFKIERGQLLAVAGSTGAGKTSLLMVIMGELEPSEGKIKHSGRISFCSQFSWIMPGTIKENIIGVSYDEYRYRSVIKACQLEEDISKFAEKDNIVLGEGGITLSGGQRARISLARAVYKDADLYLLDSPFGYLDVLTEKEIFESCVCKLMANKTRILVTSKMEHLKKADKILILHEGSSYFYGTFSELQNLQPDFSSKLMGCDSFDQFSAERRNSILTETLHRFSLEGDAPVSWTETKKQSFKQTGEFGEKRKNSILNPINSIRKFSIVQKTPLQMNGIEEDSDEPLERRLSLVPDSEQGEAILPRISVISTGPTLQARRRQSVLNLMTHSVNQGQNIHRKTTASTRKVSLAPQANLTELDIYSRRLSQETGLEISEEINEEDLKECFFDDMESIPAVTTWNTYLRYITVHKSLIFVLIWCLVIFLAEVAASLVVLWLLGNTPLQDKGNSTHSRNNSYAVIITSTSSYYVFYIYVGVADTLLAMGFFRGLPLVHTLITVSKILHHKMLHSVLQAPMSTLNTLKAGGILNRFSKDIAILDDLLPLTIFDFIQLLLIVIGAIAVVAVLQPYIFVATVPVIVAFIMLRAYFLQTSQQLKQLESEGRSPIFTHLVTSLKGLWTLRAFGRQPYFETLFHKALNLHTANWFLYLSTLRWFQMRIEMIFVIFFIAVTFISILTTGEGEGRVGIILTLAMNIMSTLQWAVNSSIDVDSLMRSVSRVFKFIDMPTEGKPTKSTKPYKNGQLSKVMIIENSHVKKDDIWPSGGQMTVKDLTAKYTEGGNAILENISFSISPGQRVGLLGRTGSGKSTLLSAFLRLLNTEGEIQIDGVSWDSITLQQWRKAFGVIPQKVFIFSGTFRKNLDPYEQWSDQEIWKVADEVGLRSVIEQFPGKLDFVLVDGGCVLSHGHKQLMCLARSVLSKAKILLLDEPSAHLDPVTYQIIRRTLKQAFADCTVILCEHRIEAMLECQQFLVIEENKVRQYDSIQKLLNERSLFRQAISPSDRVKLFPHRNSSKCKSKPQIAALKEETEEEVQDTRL
Experiment: CFTR cell surface levels using HRP-tagged ΔF508-CFTR expressing CFBE cells, intrinsic corrector capacity
Assay type: cell-based
Details: HRP-tagged ΔF508-CFTR expressing CFBE cells; intrinsic corrector capacity (no co-corrector); 33° C., 20 hours; read-out: EC50
Quick note: give the figure in nM, leave out the unit.

Past entries and their recorded results:
molecule: CCCN1CCCN(c2cc(C(=O)O)nc3c2c(C(C)C)nn3-c2ccc(F)cc2)CC1
measured: 1670
--
molecule: O=C(O)c1cc(OCC2CCCC2(F)F)c2c(C3CCC3)nn(-c3ccccc3)c2n1 (centres unmarked)
measured: 603
--
molecule: CC1OCC(Oc2cc(C(=O)O)nc3c2c(C2CCC2)nn3-c2ccccc2)CO1 (centres unmarked)
measured: 645
--
molecule: O=C(O)c1cc(OCCC2OCCCO2)c2c(C3CCC3)nn(-c3ccccc3)c2n1
measured: 755
--
molecule: O=C(O)c1cc(N2CCC(CN3CCC(F)(F)C3)CC2)c2c(C3CCC3)nn(-c3ccccc3)c2n1
measured: 83.2
--
molecule: COCC1(C)CN(c2cc(C(=O)O)nc3c2c(C2CCC2)nn3-c2ccccc2)C1
measured: 488
--
molecule: O=C(O)c1cc(N2CCC(C(F)(F)F)C2)c2c(C3CCC3)nn(-c3ccccc3)c2n1 (centres unmarked)
measured: 1080

Look at this molecule and give its reported EC50. O=C(O)c1cc(N2CC[C@H](F)[C@H](O)C2)c2c(C3CCC3)nn(-c3ccccc3)c2n1
2850
